B1: library; a variant is named by its letters at N, in order (parent)
chain: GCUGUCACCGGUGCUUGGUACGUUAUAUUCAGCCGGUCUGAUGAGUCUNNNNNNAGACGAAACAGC

variants of: B1; assay: normalized RNA/DNA level with ligand (relative to sTRSVctl = 100) (log10 (% of sTRSVctl)); HEK293T overexpressing SLC46A1; ligand concentration (+) RNA-Seq: 6 mM; higher = less ribozyme self-cleavage, higher mRNA level; settings: with (6R,S)-folinic acid; ligand present: yes
Task for the reader: assign each of the following variants its reported normalized RNA/DNA level with ligand (log10).
Form rule: numeric answer, no unit written next to it.

Inquiry: Supply recorded normalized RNA/DNA level with ligand (log10) for "AUCCAA" here.
Reply text: 1.98

Inquiry: Quick one: give measured normalized RNA/DNA level with ligand (log10) for "GACCCU"
Reply text: 2.04

Inquiry: Provide normalized RNA/DNA level with ligand (log10) value for the following variant: "CUUCAC"
Reply text: 1.99

Inquiry: Give the reported normalized RNA/DNA level with ligand (log10) for this variant. "ACUAGU"
Reply text: 2.05

Inquiry: Respond only with normalized RNA/DNA level with ligand (log10) recorded for "GCCCAC"
Reply text: 2.01

Inquiry: // fetch normalized RNA/DNA level with ligand (log10) given entry "CGUGCG"
Reply text: 1.99

Inquiry: Indicate its recorded normalized RNA/DNA level with ligand (log10); the variant in question is "GGAUGU"
Reply text: 2.03

Inquiry: Output normalized RNA/DNA level with ligand (log10) of "AUUACG"
Reply text: 2.03

Inquiry: Please look at this variant and report its normalized RNA/DNA level with ligand (log10): "GGUCCA"
Reply text: 2.01

Inquiry: Give reported normalized RNA/DNA level with ligand (log10) value for "AGGAUU"
Reply text: 2.05

Inquiry: Look up and state reported normalized RNA/DNA level with ligand (log10) for "UGAUAA"
Reply text: 2

Inquiry: Given the variant "CUACGC" , write its reported normalized RNA/DNA level with ligand (log10).
Reply text: 2.03

Inquiry: # return recorded normalized RNA/DNA level with ligand (log10) for entry "CAAUUA"
Reply text: 1.99

Inquiry: Name the recorded normalized RNA/DNA level with ligand (log10) of the variant listed here: "CACCCG"
Reply text: 2.01

Inquiry: Give a short answer stating reported normalized RNA/DNA level with ligand (log10) for "AAAUUC" .
Reply text: 2.02

Inquiry: Provide one value: measured normalized RNA/DNA level with ligand (log10) of "CAGGGU"
Reply text: 2

Inquiry: Answer with the recorded normalized RNA/DNA level with ligand (log10) for the variant listed here: "CGCCGG"
Reply text: 2.03

Inquiry: State its normalized RNA/DNA level with ligand (log10) for this variant: "CGAAAU"
Reply text: 1.97

Inquiry: Give the value of normalized RNA/DNA level with ligand (log10) reported for the following: "UGCUAA"
Reply text: 2.02

Inquiry: State its normalized RNA/DNA level with ligand (log10): "GAGCAA"
Reply text: 2

Inquiry: Specify measured normalized RNA/DNA level with ligand (log10) for "UAGUAA" .
Reply text: 2

Inquiry: Please look at this variant and report its normalized RNA/DNA level with ligand (log10): "CUAUGA"
Reply text: 2.02

Inquiry: # return recorded normalized RNA/DNA level with ligand (log10) for entry "UCGAGU"
Reply text: 2.02

Inquiry: Recall and state the measured normalized RNA/DNA level with ligand (log10) for "CUUUUA" .
Reply text: 2

Inquiry: Output measured normalized RNA/DNA level with ligand (log10) for this item: "GUUCAC"
Reply text: 2.03

Inquiry: Identify measured normalized RNA/DNA level with ligand (log10) corresponding to "CCUCAG"
Reply text: 1.96

Inquiry: For "CAGCCC" , write its normalized RNA/DNA level with ligand (log10).
Reply text: 2.03

Inquiry: Give the reported value of normalized RNA/DNA level with ligand (log10) for this record: "UAGAAU"
Reply text: 2

Inquiry: Please give measured normalized RNA/DNA level with ligand (log10) of the following entry: "GAAUUC"
Reply text: 2.02

Inquiry: Please look at this variant and report its normalized RNA/DNA level with ligand (log10): "ACGUGG"
Reply text: 2.05

Inquiry: State its normalized RNA/DNA level with ligand (log10): "CUUAGC"
Reply text: 2.01
